# assay target: Bone morphogenetic protein 1 (Homo sapiens, UniProt P13497)
# protocol summary: In vitro inhibitory activity against procollagen C-terminal proteinase (PCP) in HT1080 cells using synthetic peptide as substrate
Provide the reported pKi of each item.
The value called pKi is obtained by taking minus log10 of the concentration in mol/L.

// pKi lookup, key: COc1ccc(S(=O)(=O)N(Cc2ccc3c(c2)OCO3)[C@H](CCNC(=O)CNc2cnccn2)C(=O)NO)cc1 5.60

// pKi lookup, key: COc1ccc(S(=O)(=O)N(Cc2ccc3c(c2)OCO3)[C@H](CNS(=O)(=O)Cc2cccc([N+](=O)[O-])c2)C(=O)NO)cc1 7.55

// pKi lookup, key: COC(=O)c1ccc(C(=O)NCC[C@H](C(=O)NO)N(Cc2ccc3c(c2)OCO3)S(=O)(=O)c2ccc(OC)cc2)cc1 6.08

// pKi lookup, key: COC(=O)c1ccc(C(=O)NC[C@H](C(=O)NO)N(Cc2ccc3c(c2)OCO3)S(=O)(=O)c2ccc(OC)cc2)cc1 8.15

// pKi lookup, key: COc1ccc(S(=O)(=O)N(Cc2ccc3c(c2)OCO3)[C@H](CCNC(=O)CCc2nc3ccccc3[nH]2)C(=O)NO)cc1 6.39

// pKi lookup, key: CCOC(=O)C1CCC(NCC(=O)NCC[C@H](C(=O)NO)N(Cc2ccc3c(c2)OCO3)S(=O)(=O)c2ccc(OC)cc2)CC1 (stereo partly specified) 6.33

// pKi lookup, key: COc1ccc(S(=O)(=O)N(Cc2ccc3c(c2)OCO3)[C@H](CNCc2ccc(NC(C)=O)cc2)C(=O)NO)cc1 6.00

// pKi lookup, key: COc1ccc(S(=O)(=O)N(Cc2ccc3c(c2)OCO3)[C@H](CNC(=O)c2ccccc2)C(=O)NO)cc1 7.85

// pKi lookup, key: COc1ccc(S(=O)(=O)N(Cc2ccc3c(c2)OCO3)[C@H](CCNC(=O)c2cnoc2C)C(=O)NO)cc1 7.07

// pKi lookup, key: COc1ccc(S(=O)(=O)N(Cc2ccc3c(c2)OCO3)[C@H](CCNC(=O)c2ccccc2-n2cccc2)C(=O)NO)cc1 6.28

// pKi lookup, key: COc1ccc(S(=O)(=O)N(Cc2ccc3c(c2)OCO3)[C@H](CCCNC(=O)c2ccccc2)C(=O)NO)cc1 7.00

// pKi lookup, key: COc1ccc(S(=O)(=O)N(Cc2ccc3c(c2)OCO3)[C@H](CNC(=O)NS(=O)(=O)c2ccc(Cl)cc2)C(=O)NO)cc1 7.74

// pKi lookup, key: COc1ccc(S(=O)(=O)N(Cc2ccc3c(c2)OCO3)[C@H](CNC(=O)c2cnoc2C)C(=O)NO)cc1 5.71

// pKi lookup, key: COc1ccc(S(=O)(=O)N(Cc2ccc3c(c2)OCO3)[C@H](CNC(=O)CNc2cnccn2)C(=O)NO)cc1 6.60

// pKi lookup, key: COc1ccc(S(=O)(=O)N(Cc2ccc3c(c2)OCO3)[C@H](CCCCNC(=O)c2ccccc2)C(=O)NO)cc1 6.46

// pKi lookup, key: COc1ccc(S(=O)(=O)N(Cc2ccc3c(c2)OCO3)[C@H](CCNC(=O)c2ccccc2)C(=O)NO)cc1 6.33

---

# assay target: Bone morphogenetic protein 1 (Homo sapiens, UniProt P13497)
# Sequence (P13497 whole entry): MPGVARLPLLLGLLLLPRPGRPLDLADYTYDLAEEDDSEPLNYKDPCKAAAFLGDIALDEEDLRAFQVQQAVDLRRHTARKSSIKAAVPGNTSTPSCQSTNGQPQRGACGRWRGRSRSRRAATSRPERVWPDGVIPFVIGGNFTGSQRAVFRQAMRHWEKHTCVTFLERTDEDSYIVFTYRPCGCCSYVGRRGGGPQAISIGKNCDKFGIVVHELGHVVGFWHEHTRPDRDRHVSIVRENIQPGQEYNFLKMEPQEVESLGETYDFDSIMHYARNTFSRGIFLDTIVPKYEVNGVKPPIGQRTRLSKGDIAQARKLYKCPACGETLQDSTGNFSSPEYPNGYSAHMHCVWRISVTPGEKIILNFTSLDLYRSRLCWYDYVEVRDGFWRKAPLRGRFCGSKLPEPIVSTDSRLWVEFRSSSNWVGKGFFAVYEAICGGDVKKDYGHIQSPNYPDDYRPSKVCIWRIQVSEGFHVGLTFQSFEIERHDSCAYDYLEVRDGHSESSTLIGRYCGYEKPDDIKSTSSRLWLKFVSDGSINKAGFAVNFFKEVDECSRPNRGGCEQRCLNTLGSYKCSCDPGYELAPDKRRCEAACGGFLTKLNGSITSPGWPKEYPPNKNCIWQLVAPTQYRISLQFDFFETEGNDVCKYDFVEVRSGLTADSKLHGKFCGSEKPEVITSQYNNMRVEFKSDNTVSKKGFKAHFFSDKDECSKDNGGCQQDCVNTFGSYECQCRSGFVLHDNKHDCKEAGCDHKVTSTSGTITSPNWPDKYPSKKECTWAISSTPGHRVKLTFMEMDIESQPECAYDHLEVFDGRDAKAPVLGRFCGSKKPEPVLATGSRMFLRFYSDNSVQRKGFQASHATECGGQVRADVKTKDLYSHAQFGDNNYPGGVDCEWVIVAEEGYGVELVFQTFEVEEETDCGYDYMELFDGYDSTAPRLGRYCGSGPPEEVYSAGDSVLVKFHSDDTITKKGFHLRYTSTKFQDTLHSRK
# protocol summary: In vitro inhibitory activity against procollagen C-terminal proteinase (PCP) in HT1080 cells using synthetic peptide as substrate
Provide the reported Ki of each item.
Quick note: give the figure in µM, leave out the unit.

// Ki lookup, key: CCOc1ccc(NC(=O)NC[C@H](C(=O)NO)N(Cc2ccc3c(c2)OCO3)S(=O)(=O)c2ccc(OC)cc2)cc1 0.022

// Ki lookup, key: COc1ccc(S(=O)(=O)N(Cc2ccc3c(c2)OCO3)[C@H](CNC(=O)c2ccccc2-n2cccc2)C(=O)NO)cc1 0.008

// Ki lookup, key: COc1ccc(S(=O)(=O)N(Cc2ccc3c(c2)OCO3)[C@H](CCNC(=O)c2c(-c3ccccc3)noc2C)C(=O)NO)cc1 0.96
